B1: CPEB3 Ribozyme (parent)
chain: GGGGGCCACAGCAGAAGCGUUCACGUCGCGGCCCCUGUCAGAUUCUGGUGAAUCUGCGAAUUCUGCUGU

variants of: B1; assay: self-cleavage, relative activity (ratio to wild type); higher = more cleavage; co-transcriptional
self-cleavage vs 0.9: at or above is 1, below is -1.

The following variants have reported results that may help.
   mutations  group_label
0  C34U A40G            1
1  A23G C66U            1
2   G5A C27G           -1
3  U46G G50U            1
4  C32A U38C           -1

# input Check if self-cleavage >= 0.9 (inclusive). Item: C6U U67G
# output 1

# input Check if self-cleavage >= 0.9 (inclusive). Item: G1U C22G
# output -1

# input Check if self-cleavage >= 0.9 (inclusive). Item: C24A U46A
# output -1
